# TARGET OR SYSTEM: ZIKV envelope glycoprotein (E) of strain MR766 (Uganda 1947) (Zika virus, UniProt Q32ZE1 291-790)
# Sequence (Q32ZE1 291-790 limits assumed): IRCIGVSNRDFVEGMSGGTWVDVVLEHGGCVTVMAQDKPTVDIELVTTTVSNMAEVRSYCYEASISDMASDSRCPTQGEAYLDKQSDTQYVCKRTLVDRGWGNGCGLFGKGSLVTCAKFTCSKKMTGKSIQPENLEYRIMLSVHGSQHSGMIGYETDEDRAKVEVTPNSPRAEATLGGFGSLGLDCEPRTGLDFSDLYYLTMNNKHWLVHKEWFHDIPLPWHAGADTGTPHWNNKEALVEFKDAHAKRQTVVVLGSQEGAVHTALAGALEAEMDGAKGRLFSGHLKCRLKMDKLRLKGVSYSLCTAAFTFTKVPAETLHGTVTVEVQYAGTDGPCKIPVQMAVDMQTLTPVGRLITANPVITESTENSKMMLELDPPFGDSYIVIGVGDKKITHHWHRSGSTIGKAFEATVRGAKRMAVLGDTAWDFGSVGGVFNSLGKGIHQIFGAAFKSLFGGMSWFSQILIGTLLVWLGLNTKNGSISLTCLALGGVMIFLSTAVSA
# ASSAY METHOD TEXT: cell-based or functional assay
Measured neutralization IC50, Vero cells, listed per entry for reference.
Please state the figure in nM; there is no need to write the unit.

• H4H25637P (antibody, V domains shown) VH: QLQLQESGPGLVKPSETLSLTCTVSGDSISSSNYFWGWIRQPPGKGLEWIGNIYYSGDTYYNPSLKSRVTMSVDTSKKQFSLKLRSVTAADTAVYYCARGRPYYDFWSGYFDYWGQGTLVTVSS VL: EIVLTQSPGTLSLSPGERATLPCRASQSVSSSYLAWYQQKPGQAPRLLIYGASSRATGIPDRFRGSGSGTDFTLTISRLEPEDFAVYYCQQYGTAPWTFGQGTKVEIK = 0.0671

From here, focus on the item given below.
# neutralization IC50, Vero cells of H4H25703N (antibody, V domains shown) VH: QVQLVESGGGVVQPGRSLRLSCAASGFTFNYYGMHWVRQAPGKGLEWVAVISYDGTNKYYADSVKGRFTTSRDNSKNTLYLQMNSLRAEDTALYYCARDRGGRFDYWGQGIQVTVSS VL: EIVLTQSPDTLSLSPGERATLSCRASQSVSSNYLAWYQQKPGQAPRLLIYGASSRATGIPDRFSGSGSGTDFTLTISRLEPEDFAVYYCQRYGTSPLTFGGGTKVEIKR = 0.0445
